# target entity: GST tagged LXRbeta LBD (ligand binding domain) (Homo sapiens)
# Sequence (P55055 222-460 limits assumed): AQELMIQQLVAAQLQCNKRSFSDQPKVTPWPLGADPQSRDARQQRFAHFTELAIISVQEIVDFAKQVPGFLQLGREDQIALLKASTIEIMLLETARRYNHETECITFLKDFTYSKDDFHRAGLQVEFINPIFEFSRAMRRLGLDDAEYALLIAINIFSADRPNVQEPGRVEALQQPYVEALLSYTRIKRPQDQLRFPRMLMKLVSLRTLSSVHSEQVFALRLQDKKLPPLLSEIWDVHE
# protocol details: LanthaScreen TR-FRET Liver X Receptor Coactivator Assay, LXR beta-LBD
# particulars: Inflection Point (potency), co-activator recruitment, relative to reference T0901317; read-out: LXR beta IP
# Description: […]
measured endpoint: EC50 (nM)
Give bare numbers, in nM.

Examples from the recorded data:
- compound: "CN(C)C(=O)c1ccc(N2CCC(C3CCN(C(=O)C4(c5ccc(Cl)c(Cl)c5)CCC4)CC3)CC2)cc1Cl"
  uom: "nM"
  measured result: 413
- compound: "O=C(c1c(F)cccc1F)N1CCC(C2CCN(c3ccc(C(=O)N4CCCC4C(F)(F)F)c(Cl)c3)CC2)CC1 (stereo not shown)"
  uom: "nM"
  measured result: 473
- compound: "CN(C)C(=O)c1ccc(N2CCC(C3CCN(C(=O)C4(C(F)(F)F)CCCC4)CC3)CC2)cc1Cl"
  uom: "nM"
  measured result: 173
- compound: "COc1ccccc1C1(C(=O)N2CCC(C3CCN(c4ccc(C(=O)N(C)C)c(Cl)c4)CC3)CC2)CCC1"
  uom: "nM"
  measured result: 11
- compound: "COC(=O)[C@@H]1CCCN1C(=O)c1ccc(N2CCC(C3CCN(C(=O)[C@](O)(c4ccccc4)C(F)(F)F)CC3)CC2)cc1Cl"
  uom: "nM"
  measured result: 437
- compound: "CN(C)C(=O)c1ccc(N2CCC(C3CCN(C(=O)c4c(F)cccc4F)CC3)CC2)nc1Cl"
  uom: "nM"
  measured result: 71
- compound: "CN(C)C(=O)c1ccc(N2CCC(C3CCN(C(=O)C(O)(C(C)(C)C)C(F)(F)F)CC3)CC2)cc1Cl (single isomer, unassigned) [Example A-6]"
  uom: "nM"
  measured result: 24
- compound: "CN(C)C(=O)c1ccc(N2CCC(C3CCN(C(=O)C(O)(C4CC4)C(F)(F)F)CC3)CC2)cc1Cl (single isomer, unassigned) [Example A-9]"
  uom: "nM"
  measured result: 116
- compound: "CC(C)(C)OC(=O)NCC1CN(C(=O)c2ccc(N3CCC(C4CCN(C(=O)[C@](O)(c5ccccc5)C(F)(F)F)CC4)CC3)cc2Cl)C1"
  uom: "nM"
  measured result: 141
- compound: "CS(=O)(=O)c1ccc(N2CCC(C3CCN(C(=O)c4c(F)cccc4F)CC3)CC2)cc1Cl"
  uom: "nM"
  measured result: 380

# batch: return EC50 for each of the 8 compounds below
1. Cc1nc(CCN(C)C(=O)c2ccc(N3CCC(C4CCN(C(=O)[C@](O)(c5ccccc5)C(F)(F)F)CC4)CC3)cc2Cl)no1
2. CN(C)C(=O)c1ccc(N2CCC(C3CCN(C(=O)C(C)(O)C(F)(F)F)CC3)CC2)nc1Cl (stereo not shown)
3. Cc1ccccc1S(=O)(=O)N1CCC(C2CCN(c3ccc(C(=O)N(C)C)c(Cl)c3)CC2)CC1
4. CN(C)C(=O)c1ccc(N2CCC(C3CCN(C(=O)c4c(F)cc(F)cc4F)CC3)CC2)cc1Cl
5. CN(C)C(=O)c1ccc(N2CCC(C3CCN(c4ccccc4C(F)(F)F)CC3)CC2)cc1Cl
6. O=C(c1c(F)cccc1F)N1CCC(C2CCN(c3ccc(C(=O)N4CCCC4CO)c(Cl)c3)CC2)CC1 (stereo not shown)
7. CN(C)C(=O)c1ccc(N2CCC(C3CCN(C(=O)OCc4c(Cl)cccc4Cl)CC3)CC2)cc1Cl
8. CN(C)C(=O)c1ccc(N2CCC(C3CCN(C(=O)C(C)(C)c4ccccc4)CC3)CC2)nc1Cl

[A]
1: 66; 2: 177; 3: 140; 4: 274; 5: 526; 6: 128; 7: 8; 8: 65
